- Tested on: biotinyl-Val-oxazolone
- protocol_details: self-aminoacylation, catalytic enhancement (BVO) (fold over background); higher = more active; k-Seq, kA / k0A0; sequences stand for … in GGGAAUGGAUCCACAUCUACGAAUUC…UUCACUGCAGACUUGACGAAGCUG
Variants at the floor of the assay were thinned out.
Quick rule: self-aminoacylation of at least 3 means Condition met, below that means Condition not met.

Problem: Does self-aminoacylation meet or surpass 3 for AAGUUUGCUAAUAGUCGCGGG [Fam3.1 aminoacylation ribozyme variant] ?
Result: Condition met

Problem: Please indicate if the recorded self-aminoacylation for UCACACUUCAAGCAAUCGGAC [Fam1B.1 aminoacylation ribozyme variant] meets or exceeds 3.
Result: Condition not met

Problem: Please tell me: is the sequence CGACACUUCAAGCAAUCGGAC [Fam1B.1 aminoacylation ribozyme variant] at or over 3 in terms of self-aminoacylation?
Result: Condition not met

Problem: Record CCACACUUCAAGGAAUCGGUG [Fam1B.1 aminoacylation ribozyme variant] ; criterion: self-aminoacylation no lower than 3. Met?
Result: Condition met

Problem: Decide: self-aminoacylation of AUUAACGUGGUCAUCGAGUGA [Fam2.1 aminoacylation ribozyme variant] >= 3?
Result: Condition not met

Problem: Is self-aminoacylation at least 3? Consider AAUCACCUACGUCAUCGGGUG [Fam2.2 aminoacylation ribozyme variant]
Result: Condition met

Problem: Please indicate if the recorded self-aminoacylation for AUUCAACUAGUUCAUCGGGUG [Fam2.2 aminoacylation ribozyme variant] meets or exceeds 3.
Result: Condition not met

Problem: Textbook exercise: given the entry CUACGCUUCAAGCAAUCGGUC [Fam1B.1 aminoacylation ribozyme variant] , state whether its self-aminoacylation is greater than or equal to 3.
Result: Condition not met

---

- Test system: biotinyl-Leu-oxazolone
- protocol_details: self-aminoacylation, catalytic enhancement (BLO) (fold over background); higher = more active; k-Seq, kA / k0A0; sequences stand for … in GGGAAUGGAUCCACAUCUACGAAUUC…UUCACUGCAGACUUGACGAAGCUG
Fewer inactive variants are shown than the library holds.
assay_endpoint: self-aminoacylation
Answer with a number only.

Problem: Any idea what its self-aminoacylation is? The sequence is CUACUUCAAACAAUCUAUCUG [Fam1A.1 aminoacylation ribozyme variant]
Result: 0.485

Problem: I would be grateful if you could share the reported self-aminoacylation for AUUCACUUAGCUCAUCGGGUG [Fam2.2 aminoacylation ribozyme variant] .
Result: 2.03

Problem: Please look up its self-aminoacylation: AUUACCCUGGUCAUCGAGCGA [Fam2.1 aminoacylation ribozyme variant]
Result: 3.7

Problem: Fill in the blank: the reported self-aminoacylation of UUACUUCAAACCAUCGGUCUG [Fam1A.1 aminoacylation ribozyme variant] is ____.
Result: 0.847

Problem: Entry under review: AUUCACCUAGCUCAUCGGUUG [Fam2.2 aminoacylation ribozyme variant] . Reported self-aminoacylation?
Result: 0.861

Problem: What self-aminoacylation value was documented for this sequence, AUCCACCUAGGUCAUGGGGUG [Fam2.2 aminoacylation ribozyme variant] ?
Result: 6.65

Problem: Param item = CCACACUUCAAGCAGGCGGUC [Fam1B.1 aminoacylation ribozyme variant] ; retrieve measured self-aminoacylation.
Result: 1.07

Problem: Can you share its self-aminoacylation? I mean this sequence: AAGUUUGCUACUACUCGCAAG [Fam3.1 aminoacylation ribozyme variant]
Result: 0.791

Problem: # query: self-aminoacylation of entry AUUCACCUAGUUCAUCGUGUG [Fam2.2 aminoacylation ribozyme variant]
Result: 1.25

Problem: # get_value(readout='self-aminoacylation', item= AUUCCGCUGGUCAUCGAGUGA [Fam2.1 aminoacylation ribozyme variant] )
Result: 6.79

Problem: Item under review: AUUUACCUAUGUCAUCGGGUG [Fam2.2 aminoacylation ribozyme variant] . Reported self-aminoacylation?
Result: 6.5

Problem: Record request: self-aminoacylation value, item AUUCACCUAGGGCAUCGGGUA [Fam2.2 aminoacylation ribozyme variant]
Result: 2.34

Problem: Form field: reported self-aminoacylation of AUUCACAUAGGUCAUGGGGUG [Fam2.2 aminoacylation ribozyme variant]
Result: 9.35

Problem: For CCACACUUCAAGCAAUCGGUU [Fam1B.1 aminoacylation ribozyme variant] , what is its reported self-aminoacylation?
Result: 1.38

Problem: For AAUACCCUGGUUAUCGAGUGA [Fam2.1 aminoacylation ribozyme variant] , what is its reported self-aminoacylation?
Result: 7.89

Problem: Requested field: self-aminoacylation. Item: AAGCCUGCUAAUAGUCGCAAG [Fam3.1 aminoacylation ribozyme variant]
Result: 1.64

Problem: // self-aminoacylation lookup, key: AUACUGCAAACAAUCGGUCUG [Fam1A.1 aminoacylation ribozyme variant]
Result: 1.18

Problem: Suppose we examine the sequence AUUUCCCUGUUCAUCGAGUGA [Fam2.1 aminoacylation ribozyme variant] ; what self-aminoacylation value has been reported?
Result: 5.04

Problem: # query: self-aminoacylation of entry CUUCUCCUAGGUCAUCGGGUG [Fam2.2 aminoacylation ribozyme variant]
Result: 8.84

Problem: Recorded self-aminoacylation of UUUACCCUGGUCACCGAGUGA [Fam2.1 aminoacylation ribozyme variant] , please.
Result: 7.47

Problem: Quick one: self-aminoacylation of AUUCCCCUUGUCAUCGAGUGA [Fam2.1 aminoacylation ribozyme variant] ?
Result: 11.4

Problem: I'd like to know its self-aminoacylation. The sequence in question is AAGUUUGCUAAUCGUCGCACG [Fam3.1 aminoacylation ribozyme variant]
Result: 1.16

Problem: I would be grateful if you could share the reported self-aminoacylation for AUUACCCUGAUCAACGAGUGA [Fam2.1 aminoacylation ribozyme variant] .
Result: 15

Problem: Can you share its self-aminoacylation? I mean this sequence: AAGUUUGCUAAUAGUCGCGGG [Fam3.1 aminoacylation ribozyme variant]
Result: 4.5

Problem: Find the recorded self-aminoacylation belonging to AUUCACCUAUGGCAUCGGGUG [Fam2.2 aminoacylation ribozyme variant] and report it.
Result: 2.84

Problem: Dear colleague, I am looking for the recorded self-aminoacylation of the following sequence: AAGUUUGCUCAUAGUGGCAAG [Fam3.1 aminoacylation ribozyme variant]
Result: 0.526

Problem: Name the recorded self-aminoacylation for AAGUUUGCUAAUAGUGGGAAG [Fam3.1 aminoacylation ribozyme variant] .
Result: 0.876

Problem: Looking for the measured self-aminoacylation of UAGUUUACUAAUAGUCGCAAG [Fam3.1 aminoacylation ribozyme variant] , can you help?
Result: 1.36

Problem: Need self-aminoacylation of AUUCAACUAGGUCUUCGGGUG [Fam2.2 aminoacylation ribozyme variant] , thanks.
Result: 4.84

Problem: Which self-aminoacylation value is on record for GUACUUCAAACAAUCGGCCUG [Fam1A.1 aminoacylation ribozyme variant] ?
Result: 7.02

Problem: Requested read-out: self-aminoacylation. Entry: AAGUCUGCUAAUAGUCGCAAC [Fam3.1 aminoacylation ribozyme variant]
Result: 1.39

Problem: GET /values?readout=self-aminoacylation&item= AGUACCCUGGUCAUCCAGUGA [Fam2.1 aminoacylation ribozyme variant]
Result: 5.87

Problem: # self-aminoacylation lookup, item CUACUACAAACAAUCGUUCUG [Fam1A.1 aminoacylation ribozyme variant]
Result: 0.538

Problem: Please look up its self-aminoacylation: CUACUUCAAACAAUAGGUCUC [Fam1A.1 aminoacylation ribozyme variant]
Result: 0.493

Problem: // lookup self-aminoacylation for ACACACUUCAAGCAUUCGGUC [Fam1B.1 aminoacylation ribozyme variant]
Result: 1.8
